Kindly state log10(IC50) for each of the entries shown.
Molecular target: muscarinic receptors (3H-OXO-M), cerebral cortex
Assay: Radio ligand binding: displacement of the muscarinic agonist 3H-Oxotremorine-M (3H-OXO-M) from rat cerebral cortex membranes
Details: displacement of 2 nM 3H-OXO-M (muscarinic agonist), 2 mM magnesium chloride, 37° C., 30 min
Counter-ions that a name gives are not always drawn.
A difference of one corresponds to tenfold IC50; all values are log10 with IC50 in nM.

Input CON=C(C1=CCCN(C)C1)C(F)(F)F [E 4, oxalate salt] . Output log10(IC50): 2.35

Input CON=C(C#N)C1=CCCN(C)C1 [E 3, oxalate salt] . Output log10(IC50): 2.33

Input CCN1CCC=C(C(C#N)=NOC)C1 [E 11, oxalate salt] . Output log10(IC50): 3.07

Input CO/N=C(\CF)C1=CCCN(C)C1 [E 6, oxalate salt] . Output log10(IC50): 2.79

Input CON=C(F)C1=CCCN(C)C1 [E 2, oxalate salt] . Output log10(IC50): 1.59

Input CO/N=C(\CF)C1=CCCNC1 [E 7, hydrochloride salt] . Output log10(IC50): 2.62

Input CON=C(Cl)C1=CCCNC1 [E 9, oxalate salt] . Output log10(IC50): 2.26

Input CON=C(C#N)C1=CCCNC1 . Output log10(IC50): 1.54

Input CON=C(Cl)C1=CCCN(C)C1 [E 1, oxalate salt] . Output log10(IC50): 2.41

Input CON=C(C1=CCCN(C)C1)C(F)F [E 5, oxalate salt] . Output log10(IC50): 3.10

Input CON=C(F)C1=CCCNC1 [E 8, oxalate salt] . Output log10(IC50): 1.61
